System: Calu-3 cell barrier
Assay: Transport assay, Calu-3 cell barrier
Type: in vitro ADME
Conditions: 4 and 24 h; PatA, DMDA 5, 50, 100 nM; controls 200 µM
READOUT NAME: Permeability / transport rate across Calu-3 cell barrier (in words)

compound="NC(=O)N1c2ccccc2C=Cc2ccccc21 [carbamazepine, reference compound]" result=high

###

System: Caco-2 cell barrier
Assay: Transport assay, Caco-2 cell barrier
Type: in vitro ADME
Settings: 4 and 24 h; PatA, DMDA 5, 50, 100 nM; controls 200 µM
READOUT NAME: Permeability / transport rate across Caco-2 cell barrier (in words)

compound="NC(=O)N1c2ccccc2C=Cc2ccccc21 [carbamazepine, reference compound]" tested_system="Caco-2 cell barrier" result=high
